experiment: NCI Yeast Anticancer Drug Screen. Data for the rad50 strain (AID 155);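 also: 0% = growth of vehicle-only cultures of the same strain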; conditions: S. cerevisiae rad50 strain growth inhibition; at 50.0 µM; stronger effect = higher value
The panel holds about 79,000 compounds, 15% with a hit somewhere; the sample as a whole holds those more often.
Here the recorded growth inhibition is given for each entry.
State just the number; it will be interpreted in %.

A selection of reference data follows.
compound: Cc1cc(N(CCC#N)CCC#N)ccc1/C=C1N=C(/C=C/c2ccccc2)OC(=O)N\1
growth inhibition, %: 14.7
--
compound: COc1cc(/C=C/Cc2cc3c(cc2OCCO)OCO3)cc(OC)c1OC
growth inhibition, %: -1.05
--
compound: NC(=O)c1ccccc1C(N)=O
growth inhibition, %: 13.4
--
compound: Cc1ccc(S(=O)(=O)Nc2cccc3c(=O)[nH]cnc23)cc1
growth inhibition, %: 1.6
--
compound: NCCCCCC(CCN)SCC1OC(n2cnc3c(N)ncnc32)C(O)C1O (stereo unspecified)
growth inhibition, %: 17.6

Below: the item to evaluate.
growth inhibition reported for this compound COc1cc(C2C(C(C)=O)=C(C)Oc3cc4c(cc32)OCO4)cc(OC)c1O (stereo unspecified) : 21.1

----------
test: NCI Yeast Anticancer Drug Screen. Data for the bub3 strain (AID 167); conditions: S. cerevisiae bub3 mutant strain, at 50.0 µM, stronger effect = higher value
The panel holds about 79,000 compounds, 15% with a hit somewhere; the sample as a whole holds those more often.
property: growth inhibition (%)
Please state the figure in %; there is no need to write the unit.

compound: Cc1ccc(SCC(CF)OC(C)n2cnc3c(=O)[nH]c(N)nc32)cc1 (centres undefined)
growth inhibition [%]: 7.55
--
compound: O=CC(=O)c1cccc([N+](=O)[O-])c1
growth inhibition [%]: -29.2
--
compound: C[N+](C)(C)C1(Cc2ccccc2)c2ccccc2-c2ccc(Cl)cc21 (centres undefined)
growth inhibition [%]: -6.8
--
compound: CCOC(=O)C(C(=O)OCC)c1cc(-c2cc3ccccc3o2)oc(=O)c1C#N
growth inhibition [%]: -4.15

get_value(item= `CCCOC(=O)CNC(=O)OC(C)(C)C` , readout=growth inhibition) returns -4.95

// sample `CN(C)CCCN(c1nc2cc(Cl)ccc2o1)c1nc2cc(Cl)ccc2o1` , its growth inhibition was 8.7

Looking up `CC(C)(C)c1ccccc1OC(=O)Nc1ccc(F)cc1` , I found its growth inhibition recorded as 19.1

// growth inhibition value for CCN(CC)CCCC(C)n1c(-c2ccc(OC)cc2)nc2cc(Cl)ccc21 (centres undefined) : 6.55

For record `CC(=O)Nc1ccc(/C=C/C(=O)O)cc1` the listed growth inhibition is -31.2

Short answer for `O=C(CN1CCCCC1)NC(=O)c1ccccc1` : growth inhibition was 0.65

Memo: `Cn1c2ccccc2c2nnc(N/N=C/c3cccnc3)nc21` , reported growth inhibition: -5.05

For `O=C(CN=C(CN(c1ccccc1)c1ccccc1)Oc1c(Cl)cc(Cl)cc1Cl)N1c2ccccc2Sc2ccccc21` the compound record lists growth inhibition as -14.7

Notebook: CCCCCCC[CH2][Sn]1([CH2]CCCCCCC)[O]C2C(CO)OC(n3ccc4c(N)ncnc43)C2[O]1 (centres undefined) , growth inhibition read as 4.45

Briefly, growth inhibition measured for Nc1nc(/C=C(/O)c2ccccc2)c2ncn(C3OC(CO)C(O)C3O)c2n1 (centres undefined) : 11.2

Record `CSc1nnc(CF)c(=O)[nH]1` . Reported growth inhibition: -7.05

// `Cc1ccc(S(=O)(=O)NN=C2CCCCC2)cc1` : growth inhibition value = -14.5

growth inhibition in this record for `CCC(=O)Oc1ccccc1OC(=O)CC` : 1.9

Notebook: CN(C)CCC1(C2=CCCC2)CC/C(=C\c2ccccc2)C1=O (centres undefined) , growth inhibition read as -45.6

Kindly note the recorded growth inhibition for `O=C(C[N+]1(c2ccccc2)CCOCC1)c1ccccc1` , which is -4.25

The compound listed as `O=c1/c(=C/c2ccc(Cl)cc2Cl)sc2nc3ccccc3n12` shows growth inhibition equal to -22.5

Sure, the documented growth inhibition for COC1=CC(=O)O/C1=C(\OC)C1OC1c1ccccc1 (centres undefined) is -6.5

growth inhibition in this record for CN(C)CC1CCCC/C1=N\OC(=O)c1ccccc1 (centres undefined) : 5.8

Entry `Cc1ccc(N=C=S)cc1Cl` ; growth inhibition = 15.8

Notebook: `COc1ccc2c(=O)c(Cc3c[nH]c4ccccc34)coc2c1` , growth inhibition read as 9.85

Value of measured growth inhibition for the entry `O=C1c2ccccc2-c2cccc3ccc(-c4ccccc4)c1c23` : -7.25

For this compound ( `COc1cc2c[n+]3ccc4ccccc4c3c(N)c2cc1OC` ), measured growth inhibition is 5.9

All figures here come from PubChem BioAssay (NCI).
